Values from the Immune Epitope Database (IEDB)

- Target system: HLA-A*68:02
- Procedure text: IEDB peptide-MHC binding, purified MHC/competitive/radioactivity; bounds were set here for any values at or beyond the usual limits of such assays
- Measurement context: source organism: Vaccinia virus WR
pIC50: −log10 of the molar value.
Mark F for pIC50 values under 6, and T for everything at or above.

DVERLQMAGV T

Entry `SMHFYGWSL` : is its pIC50 no less than 6?
T

Is reported pIC50 greater than or equal to 6 here: `STFNMWREIL`
T

Hi, just wondering whether `ILSCIFAFI` shows pIC50 of 6 or higher.
T

Check the entry `IMDKEQLLKI` : does pIC50 equal or exceed 6?
F

Determine whether this sequence has pIC50 no lower than 6: `YIMRVMANNV`
T

Form field: pIC50 at least 6? Entry: `TVLTSVDIET`
F

###

Each entry below carries its recorded log10(IC50).
- Target system: HLA-A*02:03
- Procedure text: IEDB peptide-MHC binding, purified MHC/competitive/radioactivity; bounds were set here for any values at or beyond the usual limits of such assays
- Measurement context: source organism: SARS-CoV1
// do not treat as linear: log10 of IC50, unit µM

ALVFLILCFT 0.05
FVVFLLVTL 0.21
FLAFVVFLL -1.06
YQCGHYTHI -1.82
VLTHGLASV -3.52

Give its log10(IC50) value. Item: `NLLLLFVTI`
0.20

###

- Target system: HLA-A*02:01
- Procedure text: IEDB peptide-MHC binding, purified MHC/competitive/radioactivity; bounds were set here for any values at or beyond the usual limits of such assays
- Measurement context: source organism: Vaccinia virus WR
Listed below: pIC50 values for each entry.
For clarity, pIC50 is expressed as the negative log10 of concentration in mol/L.

// below: answered sequences
PLTLLIKTL 5.32
FIASAPQQL 6.92
IVSVSESNI 5.63

Query (sequence): `RTWKVLSIM` ; field requested: pIC50
6.08

Sample `YVKTLLISM` — what was its pIC50?
5.72

Looking for the measured pIC50 of `FTPRDNETV` , can you help?
6.06

###

- Target system: HLA-A*11:01
- Procedure text: IEDB peptide-MHC binding, purified MHC/competitive/radioactivity; bounds were set here for any values at or beyond the usual limits of such assays
- Measurement context: source organism: Mammarenavirus lassaense
Value kind: pIC50
Please note pIC50 is a logarithmic value: minus log10 of concentration in mol/L. Answer with that number alone.

Record request: pIC50 value, item `ALMSIISTFH`
6.21

###

- Target system: HLA-A*02:02
- Procedure text: IEDB peptide-MHC binding, cellular MHC/competitive/fluorescence; bounds were set here for any values at or beyond the usual limits of such assays
- Measurement context: source organism: Influenza A virus
pIC50: −log10 of the molar value.
Rule: TRUE for pIC50 not less than 5, FALSE for anything less.

Worked cases, answers included:
ALSYSAGA FALSE
WILWISFAIS FALSE
NTSQRGIL TRUE
QTRSKAGLLV FALSE

Does the sequence `NVRGSGMRILV` have recorded pIC50 that is 5 or more?
FALSE

Check this sequence for pIC50 at or above 5: `ATYQRTRA`
FALSE

Can `NVTVTHSV` be said to have pIC50 at or above 5?
FALSE

For this sequence, is measured pIC50 5 or higher? `ATALANTI`
FALSE

For this sequence, is measured pIC50 5 or higher? `SLCPIRGWAI`
TRUE

Is it the case that `TVLGVSIL` has pIC50 reaching or exceeding 5?
FALSE

Decide: pIC50 of `ATAILRKA` >= 5?
FALSE

###

- Target system: HLA-A*02:01
- Procedure text: IEDB peptide-MHC binding, cellular MHC/competitive/fluorescence; bounds were set here for any values at or beyond the usual limits of such assays
- Measurement context: source organism: Vaccinia virus WR
Value kind: pIC50
To interpret pIC50, take it as minus log10 of a concentration measured in moles per litre.

NVQSLIKFI 4.77
RQQLEDIFM 5.00
TAIRAGYSIV 4.58
YASLTTIGTI 5.07
IAIFNNRNLA 5.20

Can you look up the measured pIC50 of `NQCMSANEA` for me?
4.87

// query pIC50 value for entry `MAFILGIII`
5.23

For `ELTSNCTRT` , what is its reported pIC50?
4.31

What pIC50 value was documented for this sequence, `RINLLVQYGA` ?
5.04

Fill blank: measured pIC50 of the sequence `QTVDFTDCRT` is ____.
4.40

Fill blank: measured pIC50 of the sequence `ITPTIEDDKI` is ____.
4.73

Entry under review: `LTDSLSSQMT` . Reported pIC50?
4.93

Quick one: pIC50 for `TVTNLISET` ?
4.51

// query pIC50 value for entry `RVKQWVMDTL`
4.67

Give the measured pIC50 of `HQRRLVKLL` .
4.57

Report pIC50 for `LVKESMASL` please.
4.84

// pIC50 lookup, key: `PLKDVERLQM`
4.34

Form field: reported pIC50 of `TAVNEEWLT`
4.57

###

Collected IC50 values appear next to each entry.
- Target system: HLA-A*02:02
- Procedure text: IEDB peptide-MHC binding, cellular MHC/competitive/fluorescence; bounds were set here for any values at or beyond the usual limits of such assays
- Measurement context: source organism: Mammarenavirus choriomeningitidis

GTMPSLTMAC 25.3 µM
SNSEDLLKAV 17.8 µM
HNASDFYGL 6.51 µM

Could you now consider this next sequence?
Fill blank: measured IC50 of the sequence `FSLGAAVKA` is ____.
6.47 µM

###

- Target system: HLA-A*02:03
- Procedure text: IEDB peptide-MHC binding, purified MHC/competitive/radioactivity; bounds were set here for any values at or beyond the usual limits of such assays
- Measurement context: source organism: SARS-CoV1
# binning rule on IC50: low (below 50 nM), intermediate (50 nM to below 200 nM), high (200 nM or more)

FLFLAWIML low
FLIVAALVFL intermediate
MLLTFLTSL low
HAFLCLFLL low
ITAIYVFCI intermediate

Record `FTLLFQLCT` — which class?
high

Record `KLMGHFSWWT` — which class?
high

Category of `FLTNKLLLFA` , please.
low

###

- Target system: HLA-A*02:01
- Procedure text: IEDB peptide-MHC binding, cellular MHC/competitive/fluorescence; bounds were set here for any values at or beyond the usual limits of such assays
- Measurement context: source organism: Vaccinia virus WR
Reported IC50 by item:
// return numeric value only (unit: µM, not printed)

VIYPNFSKAM 17.8
TLNEYKQLYT 11.5
DVDIPTFNSL 18.2
STIANSNII 12.7
SISIKLTDSL 6.24
YVTLNASQYA 23.1
ETFPNVHEHI 23.9
GVSDLISTEI 41.8
RQLAKAIIT 9.8
VVSSSTIAT 11

Which measured IC50 value corresponds to `ITTMDGDKL` ?
15

Returns the measured IC50 for the input sequence. Input: `NITPDDGLGL`
6.53

Please look up its IC50: `QQFANVISKI`
7.32

Need IC50, item `LIYYQNEVT`
27.9

###

log10 IC50 listing for selected sequences.
- Target system: HLA-A*68:02
- Procedure text: IEDB peptide-MHC binding, purified MHC/competitive/radioactivity; bounds were set here for any values at or beyond the usual limits of such assays
- Measurement context: source organism: SARS-CoV1
Log10 applied to IC50; unit prior to transform: nM.

Some entries whose results are on file:
NLWNTFTRL 2.59
FLAFVVFLL 2.59
IMQVFFGYFA 3.65
LLLEWLAEV 2.53

Bench note: what log10 IC50 did `YASALVLLI` show?
1.00

Which log10 IC50 is reported for this sequence? `FICNLLLLFV`
3.03

What log10 IC50 value was documented for this sequence, `MLFTKFFYL` ?
-1.25

log10 IC50 lookup needed for `VMYASALVLL` , thanks.
2.88

###

- Target system: HLA-B*53:01
- Procedure text: IEDB peptide-MHC binding, purified MHC/competitive/radioactivity; bounds were set here for any values at or beyond the usual limits of such assays
- Measurement context: source organism: Mammarenavirus machupoense
Value kind: IC50 (nM)
Provide the reading as a plain figure in nM.

Fill in: IC50 of `MLNNSFYYM` is ___
851

###

- Target system: HLA-A*03:01
- Procedure text: IEDB peptide-MHC binding, cellular MHC/competitive/fluorescence; bounds were set here for any values at or beyond the usual limits of such assays
- Measurement context: source organism: Mammarenavirus choriomeningitidis
Value kind: IC50 (µM)
Please give a number only; it is taken to be in µM.

Recorded IC50 of `TSAYLISIFL` , please.
9.21
